Test: Cytotoxicity against human SNB75 cells assessed as growth inhibition at 10 uM after 48 hrs by SRB assay
Assay type: functional
Conditions: SNB-75, 48 h, read-out: GI
measure-name: inhibition of growth at 10 µM (%)
Dear colleague, please return just the value in %, with no unit written.

[
  {
    "compound": "C=C1CC[C@@H]2[C@](C)(COC(C)=O)[C@H](OC(C)=O)CC[C@@]2(C)[C@@H]1CC(NCCCC)C1=CCOC1=O (mixture of isomers)",
    "experimental-value": 22.1
  },
  {
    "compound": "C=C1CC[C@@H]2[C@](C)(COC(C)=O)[C@H](OC(C)=O)CC[C@@]2(C)[C@@H]1CC(NCc1cccc(Cl)c1)C1=CCOC1=O (mixture of isomers)",
    "experimental-value": 14.1
  }
]

Now examine the next entry.
Give the measured inhibition of growth at 10 µM for C=C1CC[C@@H]2[C@](C)(COC(C)=O)[C@H](OC(C)=O)CC[C@@]2(C)[C@@H]1CC(NC1CCCC1)C1=CCOC1=O (stereo partly drawn)
32

----------
The reader will find reported inhibition of growth at 10 µM values listed item by item below.
Experiment: Cytotoxicity against human IGROV1 cells assessed as growth inhibition at 10 uM after 48 hrs by SRB assay
Format: functional
Settings: IGROV-1, 48 h, read-out: GI
Dear colleague, please return just the value in %, with no unit written.

Worked examples follow.
[
  {
    "compound": "C=C1CC[C@@H]2[C@](C)(COC(C)=O)[C@H](OC(C)=O)CC[C@@]2(C)[C@@H]1CC(NC1CCCC1)C1=CCOC1=O (stereo partly drawn)",
    "measure-name": "inhibition of growth at 10 µM",
    "experimental-value": 11.8
  },
  {
    "compound": "C=C1CC[C@@H]2[C@](C)(COC(C)=O)[C@H](OC(C)=O)CC[C@@]2(C)[C@@H]1CC(NCc1ccc(F)cc1)C1=CCOC1=O (mixture of isomers)",
    "measure-name": "inhibition of growth at 10 µM",
    "experimental-value": 51.6
  }
]

Now examine the next entry.
Give the measured inhibition of growth at 10 µM for C=C1CC[C@@H]2[C@](C)(COC(C)=O)[C@H](OC(C)=O)CC[C@@]2(C)[C@@H]1CC(NCc1ccccc1)C1=CCOC1=O (mixture of isomers)
37.1

----------
The reader will find reported Activity values listed item by item below.
Assay: Cytotoxicity against human HL-60(TB) cells assessed as growth level at 10 uM after 48 hrs by SRB assay
Assay type: functional
Dear colleague, please return just the value in %, with no unit written.

Worked examples follow.
[
  {
    "compound": "C=C1CC[C@@H]2[C@](C)(COC(C)=O)[C@H](OC(C)=O)CC[C@@]2(C)[C@@H]1CC(NCc1cccc(Cl)c1)C1=CCOC1=O (mixture of isomers)",
    "experimental-value": 21.57
  },
  {
    "compound": "C=C1CC[C@@H]2[C@](C)(COC(C)=O)[C@H](OC(C)=O)CC[C@@]2(C)[C@@H]1CC(NCCCC)C1=CCOC1=O (mixture of isomers)",
    "experimental-value": 93.82
  },
  {
    "compound": "C=C1CC[C@@H]2[C@](C)(CO)[C@H](O)CC[C@@]2(C)[C@@H]1C/C=C1/C(=O)OC[C@H]1O [ANDROGRAPHOLIDE]",
    "experimental-value": 100.04
  },
  {
    "compound": "C=C1CC[C@@H]2[C@](C)(COC(C)=O)[C@H](OC(C)=O)CC[C@@]2(C)[C@@H]1CC(Nc1ccc(S(=O)(=O)NC(C)=O)cc1)C1=CCOC1=O (mixture of isomers)",
    "experimental-value": -31.09
  },
  {
    "compound": "C=C1CC[C@@H]2[C@](C)(COC(C)=O)[C@H](OC(C)=O)CC[C@@]2(C)[C@@H]1CC(NC1CCCC1)C1=CCOC1=O (stereo partly specified)",
    "experimental-value": 42.67
  }
]

Give the measured Activity for C=C1CC[C@@H]2[C@](C)(COC(C)=O)[C@H](OC(C)=O)CC[C@@]2(C)[C@@H]1CC(NCc1ccccc1)C1=CCOC1=O (mixture of isomers)
-9.93

----------
The reader will find reported Activity values listed item by item below.
Tested on: KM12
Experiment: Cytotoxicity against human KM12 cells assessed as growth level at 10 uM after 48 hrs by SRB assay
Assay type: functional
Please format your answer as a value with the unit trailing.

[
  {
    "compound": "C=C1CC[C@@H]2[C@](C)(COC(C)=O)[C@H](OC(C)=O)CC[C@@]2(C)[C@@H]1CC(NC1CC1)C1=CCOC1=O (mixture of isomers)",
    "target-or-system": "KM12",
    "measure-name": "Activity",
    "experimental-value": "90.49%"
  },
  {
    "compound": "C=C1CC[C@@H]2[C@](C)(CO)[C@H](O)CC[C@@]2(C)[C@@H]1C/C=C1/C(=O)OC[C@H]1O [ANDROGRAPHOLIDE]",
    "target-or-system": "KM12",
    "measure-name": "Activity",
    "experimental-value": "80.24%"
  },
  {
    "compound": "C=C1CC[C@@H]2[C@](C)(COC(C)=O)[C@H](OC(C)=O)CC[C@@]2(C)[C@@H]1CC(Sc1ccccc1)C1=CCOC1=O (mixture of isomers)",
    "target-or-system": "KM12",
    "measure-name": "Activity",
    "experimental-value": "18.58%"
  },
  {
    "compound": "C=C1CC[C@@H]2[C@](C)(COC(C)=O)[C@H](OC(C)=O)CC[C@@]2(C)[C@@H]1C/C=C1/C(=O)OC[C@H]1OC(C)=O",
    "target-or-system": "KM12",
    "measure-name": "Activity",
    "experimental-value": "52.83%"
  }
]

GET Activity where system = KM12 and item = C=C1CC[C@@H]2[C@](C)(COC(C)=O)[C@H](OC(C)=O)CC[C@@]2(C)[C@@H]1CC(NC1CCCC1)C1=CCOC1=O (some centres not stated)
74.46%

GET Activity where system = KM12 and item = C=C1CC[C@@H]2[C@](C)(COC(C)=O)[C@H](OC(C)=O)CC[C@@]2(C)[C@@H]1CC(NCc1cccc(Cl)c1)C1=CCOC1=O (mixture of isomers)
46.76%

----------
Experiment: Cytotoxicity against human UACC257 cells assessed as growth inhibition at 10 uM after 48 hrs by SRB assay
Format: functional
Settings: UACC-257, 48 h, read-out: GI
measure-name: inhibition of growth at 10 µM (%)
Dear colleague, please return just the value in %, with no unit written.

Give the measured inhibition of growth at 10 µM for C=C1CC[C@@H]2[C@](C)(CO)[C@H](O)CC[C@@]2(C)[C@@H]1C/C=C1/C(=O)OC[C@H]1O [ANDROGRAPHOLIDE]
23.5

Give the measured inhibition of growth at 10 µM for C=C1CC[C@@H]2[C@](C)(COC(C)=O)[C@H](OC(C)=O)CC[C@@]2(C)[C@@H]1CC(NC1CCCC1)C1=CCOC1=O (stereo partly drawn)
61.6

Give the measured inhibition of growth at 10 µM for C=C1CC[C@@H]2[C@](C)(COC(C)=O)[C@H](OC(C)=O)CC[C@@]2(C)[C@@H]1CC(NCCCCCCCC)C1=CCOC1=O (mixture of isomers)
38.9

Give the measured inhibition of growth at 10 µM for C=C1CC[C@@H]2[C@](C)(COC(C)=O)[C@H](OC(C)=O)CC[C@@]2(C)[C@@H]1CC(NCc1ccc(F)cc1)C1=CCOC1=O (mixture of isomers)
54.2

Give the measured inhibition of growth at 10 µM for C=C1CC[C@@H]2[C@](C)(COC(C)=O)[C@H](OC(C)=O)CC[C@@]2(C)[C@@H]1CC(NCc1cccc(Cl)c1)C1=CCOC1=O (mixture of isomers)
74.8

Give the measured inhibition of growth at 10 µM for C=C1CC[C@@H]2[C@](C)(COC(C)=O)[C@H](OC(C)=O)CC[C@@]2(C)[C@@H]1CC(NCc1ccccc1)C1=CCOC1=O (mixture of isomers)
67.2

Give the measured inhibition of growth at 10 µM for C=C1CC[C@@H]2[C@](C)(COC(C)=O)[C@H](OC(C)=O)CC[C@@]2(C)[C@@H]1C/C=C1/C(=O)OC[C@H]1OC(C)=O
33.5

Give the measured inhibition of growth at 10 µM for C=C1CC[C@@H]2[C@](C)(COC(C)=O)[C@H](OC(C)=O)CC[C@@]2(C)[C@@H]1CC(NCCCC)C1=CCOC1=O (mixture of isomers)
14.8

----------
The reader will find reported inhibition of growth at 10 µM values listed item by item below.
Assay: Cytotoxicity against human IGROV1 cells assessed as growth inhibition at 10 uM after 48 hrs by SRB assay
Type: functional
Details: IGROV-1, 48 h, read-out: GI
Dear colleague, please return just the value in %, with no unit written.

Worked examples follow.
[
  {
    "compound": "C=C1CC[C@@H]2[C@](C)(COC(C)=O)[C@H](OC(C)=O)CC[C@@]2(C)[C@@H]1CC(NCCCCCCCC)C1=CCOC1=O (mixture of isomers)",
    "inhibition of growth at 10 µM (%)": 29.8
  },
  {
    "compound": "C=C1CC[C@@H]2[C@](C)(COC(C)=O)[C@H](OC(C)=O)CC[C@@]2(C)[C@@H]1CC(NCc1cccc(Cl)c1)C1=CCOC1=O (mixture of isomers)",
    "inhibition of growth at 10 µM (%)": 35.9
  }
]

Now examine the next entry.
Give the measured inhibition of growth at 10 µM for C=C1CC[C@@H]2[C@](C)(COC(C)=O)[C@H](OC(C)=O)CC[C@@]2(C)[C@@H]1CC(NCCCC)C1=CCOC1=O (mixture of isomers)
20
